List of pIC50 values.
- target-under-test: UniProt Q14164
- Sequence (whole entry): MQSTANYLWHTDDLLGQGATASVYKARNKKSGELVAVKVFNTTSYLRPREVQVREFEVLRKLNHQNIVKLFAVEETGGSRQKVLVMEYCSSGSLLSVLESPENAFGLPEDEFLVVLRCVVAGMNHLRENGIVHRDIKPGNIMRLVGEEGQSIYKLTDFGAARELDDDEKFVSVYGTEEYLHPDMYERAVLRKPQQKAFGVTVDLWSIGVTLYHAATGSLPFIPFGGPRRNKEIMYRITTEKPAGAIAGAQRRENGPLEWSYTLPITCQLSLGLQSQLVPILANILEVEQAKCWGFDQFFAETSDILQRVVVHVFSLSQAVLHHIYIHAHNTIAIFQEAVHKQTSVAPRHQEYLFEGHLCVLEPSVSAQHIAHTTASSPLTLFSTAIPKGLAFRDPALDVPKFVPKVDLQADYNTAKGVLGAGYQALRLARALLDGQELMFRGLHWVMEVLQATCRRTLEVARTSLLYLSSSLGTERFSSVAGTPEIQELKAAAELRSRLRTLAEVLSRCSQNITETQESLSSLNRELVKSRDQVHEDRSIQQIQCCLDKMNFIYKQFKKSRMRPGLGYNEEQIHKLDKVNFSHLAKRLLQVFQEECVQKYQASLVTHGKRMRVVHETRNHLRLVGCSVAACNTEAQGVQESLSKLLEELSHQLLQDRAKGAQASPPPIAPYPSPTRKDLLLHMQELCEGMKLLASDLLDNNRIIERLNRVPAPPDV
- assay-remarks: pIC50, kinobeads binding competition
- experimental-parameters: cell material: Lysate mix

// below: answered compounds
| compound | pIC50 |
| --- | --- |
| Cc1cc(Nc2cc(C(=O)NCCNC(=O)OC3CC/C=C/CCC3)nc(N3CCN(Cc4ccc(S(=O)(=O)F)cc4)CC3)n2)n[nH]1 (stereo not drawn) | < 4.52 |
| O=C(NCCNC(=O)c1cc(Nc2cc(C3CC3)[nH]n2)nc(N2CCN(Cc3ccc(S(=O)(=O)F)cc3)CC2)n1)OC1CC/C=C/CCC1 (stereo not drawn) | < 4.52 |

Then there is this compound:
State the recorded pIC50 for this entry: C#CCNC(=O)c1cc(Nc2cc(C)[nH]n2)nc(N2CCN(Cc3ccc(S(=O)(=O)F)cc3)CC2)n1 < 4.52

This collection of values is drawn from the supplement of paper PMC12076712.
